- experimental system: DNA repair protein RAD52 homolog (Homo sapiens)
- Sequence (P43351 whole entry): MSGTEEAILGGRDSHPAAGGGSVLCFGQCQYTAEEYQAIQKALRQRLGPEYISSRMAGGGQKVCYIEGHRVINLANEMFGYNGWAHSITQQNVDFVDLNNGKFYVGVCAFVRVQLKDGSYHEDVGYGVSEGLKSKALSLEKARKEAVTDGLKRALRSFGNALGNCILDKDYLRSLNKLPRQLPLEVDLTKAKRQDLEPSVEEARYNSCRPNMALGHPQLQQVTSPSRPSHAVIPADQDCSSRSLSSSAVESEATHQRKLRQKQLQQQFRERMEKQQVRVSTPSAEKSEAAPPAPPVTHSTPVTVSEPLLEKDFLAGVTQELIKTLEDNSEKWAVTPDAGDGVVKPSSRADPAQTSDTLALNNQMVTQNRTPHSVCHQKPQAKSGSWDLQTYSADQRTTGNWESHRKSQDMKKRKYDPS
- Format: functional, biochemical
Where a name gives a salt, the structure may show the parent alone. Calls of active or inactive are those of the source.
Provide the recorded AC50 for the entries that follow.

Examples with answers:
| molecule | experimental system | AC50 |
| --- | --- | --- |
| CC1CN(C)C(C)c2c1oc1ccc(N)cc21 (stereo unspecified) | DNA repair protein RAD52 homolog (Homo sapiens) | 9.06 µM (active) |
| COC(=O)c1c(NC(=O)c2ccc(S(=O)(=O)N3CC(C)OC(C)C3)cc2)sc2c1CCN(C)C2 (stereo unspecified) | DNA repair protein RAD52 homolog (Homo sapiens) | 11.8 µM (active) |
| COc1ccc2oc3cc(NCCN(C)C)ccc3c(=O)c2c1 | DNA repair protein RAD52 homolog (Homo sapiens) | 5.46 µM (active) |

For each entry beneath this line, provide reported AC50.
1. NCC12CC3CC(C1)CC(c1ccc(Br)cc1)(C3)C2
2. CCCCCNC(=N)N/N=C/c1c[nH]c2ccc(OC)cc12 [TEGASEROD MALEATE]
3. C[C@@H]1ON(C)[C@H]2C[C@H]3c4cc(-c5cc6ccccc6o5)ccc4CCN3C[C@@H]12

Response:
1: 32 µM (active); 2: 16.7 µM (active); 3: 28.7 µM (active)

----------
- experimental system: Cytochrome P450 2C19 (Homo sapiens, UniProt P33261)
- Sequence (P33261 whole entry): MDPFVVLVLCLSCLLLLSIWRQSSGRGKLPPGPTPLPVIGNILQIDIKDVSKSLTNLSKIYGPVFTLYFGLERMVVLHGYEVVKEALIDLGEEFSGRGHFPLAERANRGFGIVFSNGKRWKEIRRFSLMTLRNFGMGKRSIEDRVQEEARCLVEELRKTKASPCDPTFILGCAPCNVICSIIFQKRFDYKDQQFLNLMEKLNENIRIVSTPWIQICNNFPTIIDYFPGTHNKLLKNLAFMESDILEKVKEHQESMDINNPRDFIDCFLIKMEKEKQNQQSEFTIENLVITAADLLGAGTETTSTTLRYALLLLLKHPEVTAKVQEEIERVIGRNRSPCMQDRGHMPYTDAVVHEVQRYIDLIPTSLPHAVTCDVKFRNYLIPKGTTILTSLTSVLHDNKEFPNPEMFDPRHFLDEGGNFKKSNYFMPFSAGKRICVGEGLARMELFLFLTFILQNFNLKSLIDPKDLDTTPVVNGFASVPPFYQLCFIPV
- protocol details: Cytochrome panel assay with activity outcomes. Panel member name: p450-cyp2c19 Compounds with AC50 equal or less than 10 uM are considered active
- Assay type: functional
- condition: read-out: AC50
measured attribute: AC50

Examples with answers:
| molecule | reported |
| --- | --- |
| COc1cccc([C@@H]2Oc3ccc(OC)cc3/C(=N/O[C@@H](C)CN3CCCc4nc(C)c(C)cc43)[C@@H]2O)c1 | 0.251 µM (inconclusive) |
| O=[N+]([O-])c1ccc(N2CCNCC2)cc1NC1CC1 | 25.1 µM (inconclusive) |
| COc1ccc(N(C(=O)Cn2nnc3ccccc32)C2(C(=O)NC3CCCC3)CCCCC2)cc1 | 14.1 µM (inconclusive) |
| NCCCc1ccc2oc3ccccc3c2c1 | 7.94 µM (inconclusive) |
| COc1ccc(NC(=O)c2nc[nH]n2)cc1 | 31.6 µM (inconclusive) |
| Cn1nnnc1SCc1ccc(C(=O)Nc2ccc(Br)cc2)cc1 | 6.31 µM (inconclusive) |
| CS(=O)(=O)N1CCN(c2ccc([N+](=O)[O-])c(NCc3ccccc3)c2)CC1 | 31.6 µM (inconclusive) |
| COc1ccc(NC(=O)CSc2nc(-c3ccc(C)cc3)cc(C(F)(F)F)c2C#N)cc1 | 20 µM (inconclusive) |
| Fc1cccc(CSc2ncnc3c2ncn3[C@H]2CCCS2)c1 | 3.98 µM (inconclusive) |
| Cc1ccc2nc(NC(=O)COC(=O)CSc3nc(C)cc(C)n3)sc2c1 | 5.01 µM (inconclusive) |

For each entry beneath this line, provide reported AC50.
1. Cc1cc(Cl)ccc1OC(C)C(=O)Nc1ccc(S(=O)(=O)Nc2cnc3ccccc3n2)cc1 (stereo not drawn)
2. CSc1c(-c2ccccc2)nc2ccccc2c1C(=O)O
3. Cc1ccc(/C=N/n2cnnc2)s1

Response:
1: 14.1 µM (inconclusive); 2: 10 µM (inconclusive); 3: 11.2 µM (inconclusive)

----------
- experimental system: Probable nicotinate-nucleotide adenylyltransferase (Staphylococcus aureus (strain N315), UniProt P65502);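 note: confirmatory dose-response retesting of NadD inhibitor hits first found in an ultra-high-throughput screen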
- Sequence (P65502 whole entry): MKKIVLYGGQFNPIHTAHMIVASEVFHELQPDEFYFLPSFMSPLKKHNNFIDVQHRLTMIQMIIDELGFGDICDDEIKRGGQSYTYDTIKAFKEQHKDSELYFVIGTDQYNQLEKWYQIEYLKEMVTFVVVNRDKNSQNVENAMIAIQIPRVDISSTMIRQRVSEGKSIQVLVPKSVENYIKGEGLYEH
- Format: functional, Staphylococcus aureus subsp. aureus N315
- condition: read-out: IC50_Mean
The source made the active and inactive calls.
measured attribute: IC50

| compound | IC50 |
| --- | --- |
| Cn1c(SCC(=O)N2c3ccccc3CCc3ccccc32)nnc1-c1cc2ccccc2cc1O | 24.5 µM (active) |
| O=C(O)Cc1sc(N/N=C\c2ccccc2)nc1-c1ccccc1 | 27.7 µM (active) |
| Cc1ccc2nc(NNC(=O)c3ccc(S(=O)(=O)N4CCc5ccccc5C4)cc3)sc2c1 | 52.7 µM (active) |
| CCOc1ccc(N2C(=O)/C(=C\c3ccc(O)c(OC)c3)S(=O)(=O)C2c2cccc([N+](=O)[O-])c2)cc1 (stereo unspecified) | 35.9 µM (active) |
| COC1C(OC(=O)c2ccc(C)[nH]2)C(O)C(Oc2ccc3c(O)c(NC(=O)c4ccc(O)c(CC=C(C)C)c4)c(=O)oc3c2Cl)OC1(C)C (stereo unspecified) | 7.01 µM (active) |

Request: Return reported IC50. Input compound: Cc1ccc(-c2cc(C(=O)Nc3ccc(S(=O)(=O)Nc4nccs4)cc3)c3ccccc3n2)c(C)c1
Response: 21.6 µM (active)

----------
Provide the recorded IC50 for the entries that follow.
- experimental system: High affinity choline transporter 1 (Homo sapiens)
- Sequence (Q9GZV3 whole entry): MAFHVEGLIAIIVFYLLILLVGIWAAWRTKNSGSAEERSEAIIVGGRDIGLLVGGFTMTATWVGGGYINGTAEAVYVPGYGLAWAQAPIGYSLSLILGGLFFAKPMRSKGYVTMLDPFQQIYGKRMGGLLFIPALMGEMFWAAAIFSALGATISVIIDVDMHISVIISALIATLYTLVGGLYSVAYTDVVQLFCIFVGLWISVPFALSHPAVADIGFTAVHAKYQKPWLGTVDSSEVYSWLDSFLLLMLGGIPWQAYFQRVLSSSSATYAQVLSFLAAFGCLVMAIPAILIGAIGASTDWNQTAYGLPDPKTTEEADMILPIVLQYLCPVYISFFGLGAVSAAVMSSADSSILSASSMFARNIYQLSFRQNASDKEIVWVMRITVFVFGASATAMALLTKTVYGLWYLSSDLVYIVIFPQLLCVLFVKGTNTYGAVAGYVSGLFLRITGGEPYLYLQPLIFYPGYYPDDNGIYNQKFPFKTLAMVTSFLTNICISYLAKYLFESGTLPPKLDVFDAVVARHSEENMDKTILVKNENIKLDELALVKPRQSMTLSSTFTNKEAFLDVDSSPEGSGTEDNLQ
- protocol details: CHT inhibitors, dose response, cell-based, 5-point CRC, membrane potential dye (AID 504840)
- Type: functional
The source made the active and inactive calls.

| compound | reported |
| --- | --- |
| CCCN(C(=O)c1cn(CC)c2nc(C)ccc2c1=O)c1c(N)n(Cc2ccccc2)c(=O)[nH]c1=O | 12.6 µM (active) |
| CC(=O)N1c2ccc(S(=O)(=O)NCCC(=O)NC3CCCC(C)C3C)cc2CC1C (configuration not stated) | 13.2 µM (active) |
| CCOC(=O)c1c(C)c(C(=O)N2CCc3ccccc3C2)c(C)n1CC | 13.8 µM (active) |
| O=C(Nc1cc(S(=O)(=O)N2CCCCC2)ccc1O)c1ccccc1NS(=O)(=O)c1ccc(F)c(F)c1 | 12.6 µM (active) |
| Cc1cc(Cl)ccc1OC(C)C(=O)Nc1ccc(S(=O)(=O)Nc2cnc3ccccc3n2)cc1 (configuration not stated) | 13.8 µM (active) |
| COc1cc(/C=C2/C(=O)N(c3cccc(Br)c3)N=C2C)cc(OC)c1O | 13.8 µM (active) |

Request: Return reported IC50. Input compound: Cc1ccccc1N1C(=O)NC(=O)/C(=C\c2c(-c3ccccc3)[nH]c3ccccc23)C1=O
Response: 11 µM (active)

----------
- experimental system: Luciferin 4-monooxygenase (Photinus pyralis, UniProt P08659)
- Sequence (P08659 whole entry): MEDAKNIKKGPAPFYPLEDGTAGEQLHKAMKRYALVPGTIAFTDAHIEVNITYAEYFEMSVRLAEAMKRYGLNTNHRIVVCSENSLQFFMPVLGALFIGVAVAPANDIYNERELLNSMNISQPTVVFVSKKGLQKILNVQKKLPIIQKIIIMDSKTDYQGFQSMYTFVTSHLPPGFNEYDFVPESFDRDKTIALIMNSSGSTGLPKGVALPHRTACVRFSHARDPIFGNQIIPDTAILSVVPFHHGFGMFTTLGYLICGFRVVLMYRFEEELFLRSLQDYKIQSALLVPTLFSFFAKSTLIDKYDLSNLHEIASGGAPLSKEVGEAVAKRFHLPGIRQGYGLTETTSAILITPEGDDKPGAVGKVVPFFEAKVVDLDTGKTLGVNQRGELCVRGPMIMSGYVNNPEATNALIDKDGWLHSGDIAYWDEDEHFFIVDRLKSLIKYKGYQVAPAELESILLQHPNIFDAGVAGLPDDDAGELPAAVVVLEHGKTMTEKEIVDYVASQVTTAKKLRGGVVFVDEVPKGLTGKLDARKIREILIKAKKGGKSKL
- protocol details: Counter Screen for Luciferase-based Assay Positives. [Related pubchem assays: 620, 618, 411 ]
Calls of active or inactive are those of the source.
measured attribute: EC50

For each entry beneath this line, provide reported EC50.
1. Cc1cc(NC(=O)CSc2nc(-c3ccco3)cc(C(F)(F)F)n2)no1
2. Cc1cc(/C=N/n2cnnc2)c(C)n1-c1ccc(OCc2ccc(Cl)cc2Cl)cc1
3. Cc1c(C(=O)NCC2CCCO2)oc2ccc3c(c12)C(=O)CC(C)(C)O3 (centres undefined)
4. CN1/C(=C\C=C\C2=[N+](C)c3ccc4ccccc4c3C2(C)C)C(C)(C)c2ccccc21.[O-][Cl+3]([O-])([O-])[O-]

Response:
["1.59 µM (active)", "0.28 µM (active)", "0.54 µM (active)", "7.77 µM (active)"]

----------
- experimental system: Calpain-2 catalytic subunit (Sus scrofa)
- Sequence (P43367 whole entry): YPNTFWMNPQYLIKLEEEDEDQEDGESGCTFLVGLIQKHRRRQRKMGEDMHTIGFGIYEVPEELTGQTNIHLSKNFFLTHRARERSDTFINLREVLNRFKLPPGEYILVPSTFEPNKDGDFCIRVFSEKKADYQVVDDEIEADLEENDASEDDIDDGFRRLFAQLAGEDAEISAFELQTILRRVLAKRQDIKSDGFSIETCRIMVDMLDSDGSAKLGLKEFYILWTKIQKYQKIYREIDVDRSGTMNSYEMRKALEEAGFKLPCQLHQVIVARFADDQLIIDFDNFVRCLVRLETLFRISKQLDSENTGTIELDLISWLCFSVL
- protocol details: pig calpain II inhibitor potency, dose response, biochemical, fluorogenic peptide substrate (AID 1420)
- Type: functional
Calls of active or inactive are those of the source.
measured attribute: IC50

Examples with answers:
| compound | IC50 |
| --- | --- |
| COc1ccc(OC)c(NC(=O)c2ccc3c(=O)n(CCc4ccccc4)c(=S)[nH]c3c2)c1 | 13 µM (not active) |
| C=C(C)CNC(=S)N/N=C/c1c(F)cccc1F | 20.3 µM (not active) |
| Cc1ccc(OCC(=O)NNC(=O)C(C)Sc2ncnc3sc(C)c(C)c23)cc1 (stereo not given) | 2.51 µM (not active) |
| Cc1ccc(Cl)cc1N1CCN(C(=O)Cc2cn(C)c3ccccc23)CC1 | 6.39 µM (not active) |
| COc1ccc(CNC(=O)C2CCN(S(=O)(=O)c3ccc(-c4nn[nH]n4)cc3)CC2)cc1 | 14.9 µM (not active) |

For each entry beneath this line, provide reported IC50.
1. Cc1ccc(CSc2ccc3nnc(-c4cccnc4)n3n2)cc1
2. CC(C)NC(=O)C1CCCN(S(C)(=O)=O)C1 (stereo not given)
3. O=C(Nc1nnc(-c2ccccc2SCc2ccccc2F)s1)Nc1ccccc1F
4. COc1cccc(C2=CC(c3ccccc3)n3nnnc3N2)c1 (stereo not given)
5. CCn1c(SCc2ccc(F)cc2)nnc1C1CCN(S(=O)(=O)c2ccc(OC)cc2)CC1

Response:
1. 5.64 µM (active)
2. 7.4 µM (not active)
3. > 50 µM (not active)
4. 2.32 µM (not active)
5. 26.2 µM (not active)

----------
- experimental system: UniProtKB Q9HC16
- Sequence (Q9HC16 whole entry): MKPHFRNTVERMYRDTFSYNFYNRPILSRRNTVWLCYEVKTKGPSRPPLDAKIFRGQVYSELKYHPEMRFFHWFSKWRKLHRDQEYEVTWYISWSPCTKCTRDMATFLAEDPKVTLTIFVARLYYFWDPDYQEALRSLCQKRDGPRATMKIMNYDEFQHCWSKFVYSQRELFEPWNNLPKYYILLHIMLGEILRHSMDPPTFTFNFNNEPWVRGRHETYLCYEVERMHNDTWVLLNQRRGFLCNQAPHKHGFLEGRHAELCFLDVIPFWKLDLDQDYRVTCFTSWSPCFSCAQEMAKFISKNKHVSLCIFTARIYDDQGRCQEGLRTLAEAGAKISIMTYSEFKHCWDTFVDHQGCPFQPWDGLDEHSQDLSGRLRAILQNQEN
- Format: functional
The source made the active and inactive calls.
measured attribute: IC50

Examples with answers:
| compound | reported |
| --- | --- |
| CC(=O)OC(COC1C[C@@H]2CC[C@@]1(C)C2(C)C)C[N+]1(C)CCCCC1 (some centres undefined) | 3.55 µM (active) |
| CC1=CC(C)(C)[N+](C)(C)c2ccc(C)cc21 | 3.44 µM (active) |
| CC(=O)OCCCn1c(C)[n+](C)c2cc(Cl)c(Cl)cc21 | 2.41 µM (active) |

Request: Return reported IC50. Input compound: O=C(COc1ccccc1/C=C1/NC(=O)NC1=O)Nc1ccccc1
Response: 3.26 µM (active)
